B1: S100A14 (parent)
chain: KIANLGSCNDSKLEFRSFWELIGE

Variants of: B1
procedure.details: protein stability index of a GFP-peptide fusion (GPS, HEK-293T) (PSI 1-6); higher = more stable;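 note: lentivirally expressed fusions sorted by FACS into six bins by GFP to DsRed ratio, PSI derived from sequencing read proportions per bin multiplied by bin number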
experimental.parameters: c terminus: a fixed tail appended
measured.attribute: protein stability index

GET /values?readout=protein stability index&item= KIANLTSCNDSKLEFRSFWELIGE 1.63

GET /values?readout=protein stability index&item= KIANLGSCNDSKLYFRSFWELIGE 2.01

GET /values?readout=protein stability index&item= KIANLQSCNDSKLEFRSFWELIGE 1.95

GET /values?readout=protein stability index&item= KIANTGSCNDSKLEFRSFWELIGE 1.62

GET /values?readout=protein stability index&item= KTANLGSCNDSKLEFRSFWELIGE 2

GET /values?readout=protein stability index&item= KIANLGSCNDSKLEFRSFWELIGI 2.86

GET /values?readout=protein stability index&item= KIANFGSCNDSKLEFRSFWELIGE 2.03

GET /values?readout=protein stability index&item= KIANLISCNDSKLEFRSFWELIGE 1.75

GET /values?readout=protein stability index&item= KIANLGSCNDSKLEFRSFWEMIGE 1.23

GET /values?readout=protein stability index&item= KIENLGSCNDSKLEFRSFWELIGE 1.95

GET /values?readout=protein stability index&item= KIANLGSCNDSKLEFRSFWELYGE 2

GET /values?readout=protein stability index&item= KIAWLGSCNDSKLEFRSFWELIGE 2.55

GET /values?readout=protein stability index&item= KIANLGSCNDSKLEARSFWELIGE 2.06

GET /values?readout=protein stability index&item= KIANLGSCNDSKLEFRSFWELIGC 1.53

GET /values?readout=protein stability index&item= KIANLGCCNDSKLEFRSFWELIGE 2.09

GET /values?readout=protein stability index&item= KIANLGSCNLSKLEFRSFWELIGE 2.55

GET /values?readout=protein stability index&item= KIANQGSCNDSKLEFRSFWELIGE 2.17

GET /values?readout=protein stability index&item= KIMNLGSCNDSKLEFRSFWELIGE 2.69

GET /values?readout=protein stability index&item= KIANLGSCNDSKLEFRSFWELIGW 2.1

GET /values?readout=protein stability index&item= KIANLGSCNDSKLEFRSFWERIGE 1.94

GET /values?readout=protein stability index&item= KIANLGSCNDSRLEFRSFWELIGE 2.56

GET /values?readout=protein stability index&item= KIANRGSCNDSKLEFRSFWELIGE 2.25

meta.source: the supplement of paper PMC10567573
